target system: Rat Striatal Nicotinic Receptors ([^3H]MLA binding sites; α7) (Rattus norvegicus, UniProt Q05941)
Construct: Whole brain, excluding cortex and cerebellum, was homogenized in 20 vol of ice-cold buffer; from tissue; host or cells: rat brain membranes (whole brain excluding cortex and cerebellum)
Sequence (Q05941 23-502): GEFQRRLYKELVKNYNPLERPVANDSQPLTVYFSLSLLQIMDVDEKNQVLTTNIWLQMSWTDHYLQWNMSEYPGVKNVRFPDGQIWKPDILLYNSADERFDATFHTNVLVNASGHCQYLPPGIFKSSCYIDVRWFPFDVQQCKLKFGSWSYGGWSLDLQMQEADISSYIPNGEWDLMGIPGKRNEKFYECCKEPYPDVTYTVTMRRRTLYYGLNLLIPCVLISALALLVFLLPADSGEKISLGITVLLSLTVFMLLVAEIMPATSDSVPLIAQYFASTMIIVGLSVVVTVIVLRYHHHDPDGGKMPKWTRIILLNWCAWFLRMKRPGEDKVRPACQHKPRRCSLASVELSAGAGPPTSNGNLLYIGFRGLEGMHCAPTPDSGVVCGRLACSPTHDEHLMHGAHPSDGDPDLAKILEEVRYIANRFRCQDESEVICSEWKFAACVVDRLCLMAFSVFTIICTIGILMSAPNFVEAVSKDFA
measurement protocol: Inhibition of [^3H]MLA (methyllycaconitine) binding
test settings: 100 nM analog; [^3H]MLA; nonspecific S-nicotine; rat brain membranes; read-out: [^3H]MLA binding, % inhibition
Property: inhibition at 0.1 µM; scope: individual molecules
measured property: inhibition at 0.1 µM

Cc1cc[n+](CCCCCc2ccccc2CCCCC[n+]2ccc(C)cc2C)c(C)c1 = 4.8%
Cc1cc(C)c[n+](CCCCc2ccc(CCCC[n+]3cc(C)cc(C)c3)cc2)c1 = 0%
c1ccc(CCCCC[n+]2cccc3ccccc32)c(CCCCC[n+]2cccc3ccccc32)c1 = 6.3%
Cc1cc[n+](CCCc2ccc(-c3ccc(CCC[n+]4ccc(C)cc4)cc3)cc2)cc1 = 0%
